tested on: RAW-Dual; assay: NF-kB SEAP reporter activity, fold change vs agonist alone; cytotoxicity flag (confluency mask): not cytotoxic; higher = enhanced NF-kB activity; settings: agonist: LPS (TLR4) 0.1 ug/mL
Over roughly 2,900 compounds, “NF-kB SEAP reporter activity, fold change vs agonist alone” has its median near 0.99; the highest 2% begin near 2.6. The entries come from a sample that favours the highest values as a whole.
READOUT LABEL: NF-kB SEAP reporter activity

>>> reported_value("Cc1ccc(CNc2ncnc3ccc(-c4ccc(CO)o4)cc23)o1 (library stock concentration (final ~1000-fold dilution): 10 mM)")
1.16
>>> reported_value("CCCS(=O)(=O)Nc1ccc(F)c(C(=O)c2c[nH]c3ncc(Cl)cc23)c1F (library stock concentration (final ~1000-fold dilution): 10 mM)")
1.48
>>> reported_value("Br.CN(C)CCCC1(c2ccc(F)cc2)OCc2cc(C#N)ccc21 (stereo not given) (library stock concentration (final ~1000-fold dilution): 10 mM)")
1.15
>>> reported_value("CC(C)(C)C(=O)N1N=CCC1c1ccccc1 (stereo not given) (library stock concentration (final ~1000-fold dilution): 10 mM)")
1.02
>>> reported_value("CCN(C)S(=O)(=O)Nc1ccc(F)c(C(=O)c2c[nH]c3ncc(-c4cnc(C5CC5)nc4)cc23)c1F (library stock concentration (final ~1000-fold dilution): 10 mM)")
3.3
>>> reported_value("O=C1NC(=O)C(c2cn3c4c(cccc24)CCC3)C1c1c[nH]c2ccccc12 (stereo not given) (library stock concentration (final ~1000-fold dilution): 10 mM)")
3.41
>>> reported_value("Cl.N=C(N)NC(=O)c1nc(Cl)c(N)nc1N.O.O (library stock concentration (final ~1000-fold dilution): 10 mM water)")
1.07
>>> reported_value("CCOc1cc(N)c([N+](=O)[O-])cc1C(=O)NC1CCN(CC2CC=CCC2)CC1.O=C(O)C(O)C(O)C(=O)O (stereo not given) (library stock concentration (final ~1000-fold dilution): 10 mM)")
1.38
>>> reported_value("NC(=O)c1ccc(OCCCN2CC3CCCC3C2)cc1 (stereo not given) (library stock concentration (final ~1000-fold dilution): 10 mM)")
0.976
>>> reported_value("COC1OC(COS(=O)(=O)O)C(OC2OC(C(=O)O)C(OC3OC(COS(=O)(=O)O)C(OC4OC(C(=O)O)C(OC5OC(COS(=O)(=O)O)C(O)C(O)C5NS(=O)(=O)O)C(O)C4O)C(OS(=O)(=O)O)C3NS(=O)(=O)O)C(O)C2OS(=O)(=O)O)C(O)C1NS(=O)(=O)O (stereo not given) (library stock concentration (final ~1000-fold dilution): 10 mM water)")
1.06
>>> reported_value("N=C(N)c1ccc(OCCCCCOc2ccc(C(=N)N)cc2)cc1.O=S(=O)(O)CCO.O=S(=O)(O)CCO (library stock concentration (final ~1000-fold dilution): 10 mM)")
3.88
>>> reported_value("NC(CSC(c1ccccc1)(c1ccccc1)c1ccccc1)C(=O)O (stereo not given) (library stock concentration (final ~1000-fold dilution): 10 mM)")
0.775
>>> reported_value("CC(C)(OC1OC(CO)C(O)C(O)C1O)C1Cc2cc3ccc(=O)oc3cc2O1 (stereo not given) (library stock concentration (final ~1000-fold dilution): 10 mM)")
1.14
>>> reported_value("O=C1N=C(O)CN1N=Cc1ccc(-c2ccc([N+](=O)[O-])cc2)o1 (library stock concentration (final ~1000-fold dilution): 10 mM)")
1.06
>>> reported_value("CC(=O)NC1C(NC(=N)N)C=C(C(=O)O)OC1C(O)C(O)CO (stereo not given) (library stock concentration (final ~1000-fold dilution): 10 mM water)")
1.37

====

tested on: RAW-Dual; assay: NF-kB SEAP reporter activity, fold change vs agonist alone; cytotoxicity flag (confluency mask): cytotoxic (confluency <70% of control); higher = enhanced NF-kB activity; settings: agonist: Pam2CSK4 (TLR2/6) 0.1 ug/mL
In all, about 2,900 compounds were measured (“NF-kB SEAP reporter activity, fold change vs agonist alone”: median about 0.99, highest 2% from about 2.6 on). For the sample, the highest values were picked, then their nearest neighbours and some compounds at random.
Entries and their NF-kB SEAP reporter activity
READOUT LABEL: NF-kB SEAP reporter activity

>>> reported_value("CCC(C)(C)C(=O)OC1CC(C)C=C2C=CC(C)C(CCC3CC(O)CC(=O)O3)C21 (stereo not drawn) (library stock concentration (final ~1000-fold dilution): 10 mM)")
2.12
>>> reported_value("CC(C)COc1ccc(CNC(=O)N(Cc2ccc(F)cc2)C2CCN(C)CC2)cc1.CC(C)COc1ccc(CNC(=O)N(Cc2ccc(F)cc2)C2CCN(C)CC2)cc1.O=C(O)C(O)C(O)C(=O)O (library stock concentration (final ~1000-fold dilution): 10 mM)")
0.0981
>>> reported_value("O=C(/C=C/c1cncc(F)c1)c1c(-c2ccccc2)c2cc(Cl)ccc2[nH]c1=O (library stock concentration (final ~1000-fold dilution): 10 mM)")
0.0981

====

system: RAW-Dual; experiment: NF-kB SEAP reporter activity, fold change vs agonist alone; higher = enhanced NF-kB activity; conditions: library stock concentration (final ~1000-fold dilution): 10 mM; cytotoxicity flag (confluency mask): not cytotoxic; agonist: MPLA (TLR4) […]
In all, about 2,900 compounds were measured (“NF-kB SEAP reporter activity, fold change vs agonist alone”: median about 0.99, highest 2% from about 2.6 on). Only a selection was taken, and the highest values are over-represented in it overall.
// label = label 1 if NF-kB SEAP reporter activity is not less than 1, otherwise label 0

>>> group_label("CCc1c(N(CC)C2CCOCC2)cc2oc(C3CCN(C(C)C)CC3)cc2c1C(=O)NCc1c(C)cc(C)[nH]c1=O")
"label 1"
>>> group_label("COc1cc2nccc(Oc3ccc(NC(=O)C4(C(=O)Nc5ccc(F)cc5)CC4)cc3)c2cc1OC")
"label 0"
>>> group_label("O=C(O)CN1C(=O)c2cccc3cccc(c23)C1=O")
"label 1"
>>> group_label("Nc1nc(F)nc2c1ncn2C1OC(COP(=O)(O)O)C(O)C1O (stereo not drawn)")
"label 1"
>>> group_label("CC(Nc1ncnc(N)c1C#N)c1cc2cccc(-c3ccc(=O)n(C)c3)c2c(=O)n1C(C)C (stereo not drawn)")
"label 1"
>>> group_label("CNc1ccc([N+](=O)[O-])cc1-n1cnc(-c2ccc(C(F)(F)F)cc2)c1")
"label 1"
>>> group_label("Cc1ccc(C(=O)N(CCCN)C(c2oc3cc(Cl)ccc3c(=O)c2Cc2ccccc2)C(C)C)cc1.Cl (stereo not drawn)")
"label 1"
>>> group_label("CC(NC(=O)c1c(N)nn2cccnc12)c1cc2cccc(C#Cc3cnn(C)c3)c2c(=O)n1-c1ccccc1 (stereo not drawn)")
"label 1"
>>> group_label("COC1(c2sc3c(N4CCOCC4)nc(-c4cnc(N)nc4)nc3c2C)COC1")
"label 1"
>>> group_label("CC(=O)OC1(C(C)=O)CCC2C3C=C(Cl)C4=CC(=O)CCC4(C)C3CCC21C (stereo not drawn)")
"label 1"
>>> group_label("COc1cc2c(Oc3ccc(NC(=O)C4(C(=O)Nc5ccc(F)cc5)CC4)cc3F)ccnc2cc1OCCCN1CCOCC1")
"label 0"

====

test system: RAW-Dual; test: NF-kB SEAP reporter activity, fold change vs agonist alone; higher = enhanced NF-kB activity; settings: library stock concentration (final ~1000-fold dilution): 2 mM; cytotoxicity flag (confluency mask): not cytotoxic; agonist: Imiquimod (TLR7) […]
Over roughly 2,900 compounds, “NF-kB SEAP reporter activity, fold change vs agonist alone” has its median near 0.99; the highest 2% begin near 2.6. The sample holds the highest values, similar compounds and a random draw of the others, so the mix is not that of the screen.
READOUT LABEL: NF-kB SEAP reporter activity

>>> reported_value("O=c1cc(N2CCOCC2)oc2c(-c3cccc4c3sc3ccccc34)cccc12")
1.46
>>> reported_value("C#Cc1cccc(Nc2ncnc3cc(OCCOC)c(OCCOC)cc23)c1.Cl")
0.949
>>> reported_value("Cl.O=c1n(CCCN2CCN(c3cccc(Cl)c3)CC2)nc2ccccn12")
1.05
>>> reported_value("CCOC(=O)C1=CC(OC(CC)CC)C(NC(C)=O)C(N)C1 (stereo unspecified)")
0.848
>>> reported_value("C=CC(=O)Nc1cccc(C)c1Nc1ncc2cc(-c3c(Cl)c(OC)cc(OC)c3Cl)ccc2n1")
1.08
>>> reported_value("C=C(C)C1CCC2(C)CCC3(C)C(CCC4C5(C)CCC(O)C(C)(C)C5CCC43C)C12 (stereo unspecified)")
1
>>> reported_value("C=C(C)C1CCC2(C(=O)OC3OC(COC4OC(CO)C(OC5OC(C)C(O)C(O)C5O)C(O)C4O)C(O)C(O)C3O)CCC3(C)C(CCC4C5(C)CCC(OC6OCC(O)C(O)C6OC6OC(C)C(O)C(O)C6O)C(C)(CO)C5CCC43C)C12 (stereo unspecified)")
0.946
>>> reported_value("COc1cc(N2CCC(N3CCN(C)CC3)CC2)ccc1Nc1ncc(Cl)c(Nc2ccccc2P(C)(C)=O)n1")
1.15
>>> reported_value("CC(=O)OC(CC=C(C)C)C1=CC(=O)c2c(O)ccc(O)c2C1=O (stereo unspecified)")
0.978
>>> reported_value("CNC1CN(c2ccc3c(=O)c(C(=O)O)cn(-c4nccs4)c3n2)CC1OC.Cl (stereo unspecified)")
1.12
>>> reported_value("N#Cc1ncccn1")
1
>>> reported_value("Cc1cccc(CN2CCN(C(c3ccccc3)c3ccc(Cl)cc3)CC2)c1.Cl.Cl (stereo unspecified)")
0.843
>>> reported_value("c1ccc(-c2n[nH]cc2-c2ccnc3ccccc23)nc1")
0.961
>>> reported_value("CCC(C)n1cc(C)c2c(C(=O)NCc3c(C)cc(C)[nH]c3=O)cc(-c3ccc(N4CCNCC4)nc3)cc21 (stereo unspecified)")
0.954
>>> reported_value("CNc1ncc2cc(-c3cc(NC(=O)NCCC(C)(C)C)c(F)cc3C)c(C)nc2n1")
0.497
>>> reported_value("COc1cc(N2CCC(N3CCN(C)CC3)CC2)ccc1Nc1ncc(Cl)c(Nc2ccccc2S(=O)(=O)C(C)C)n1")
1.28
